# EXPERIMENT_NOTES: Caco-2 bidirectional transport permeability
# Assay type: in vitro ADME, human
# CONDITION_PARAMETERS: human
READOUT: Papp A→B at 60 min, 20 µM (×10⁻⁶ cm/s)
Give bare numbers, in ×10⁻⁶ cm/s.

Task: Give Papp A→B at 60 min, 20 µM for the following molecule: "C[C@H](Nc1ncnc(N)c1C#N)c1cc2ncc(Cl)n2nc1-c1ccccc1"
Result: 40.9

* * *

# TESTED_TARGET: P-gp (Homo sapiens, UniProt P08183)
# Sequence (P08183 whole entry): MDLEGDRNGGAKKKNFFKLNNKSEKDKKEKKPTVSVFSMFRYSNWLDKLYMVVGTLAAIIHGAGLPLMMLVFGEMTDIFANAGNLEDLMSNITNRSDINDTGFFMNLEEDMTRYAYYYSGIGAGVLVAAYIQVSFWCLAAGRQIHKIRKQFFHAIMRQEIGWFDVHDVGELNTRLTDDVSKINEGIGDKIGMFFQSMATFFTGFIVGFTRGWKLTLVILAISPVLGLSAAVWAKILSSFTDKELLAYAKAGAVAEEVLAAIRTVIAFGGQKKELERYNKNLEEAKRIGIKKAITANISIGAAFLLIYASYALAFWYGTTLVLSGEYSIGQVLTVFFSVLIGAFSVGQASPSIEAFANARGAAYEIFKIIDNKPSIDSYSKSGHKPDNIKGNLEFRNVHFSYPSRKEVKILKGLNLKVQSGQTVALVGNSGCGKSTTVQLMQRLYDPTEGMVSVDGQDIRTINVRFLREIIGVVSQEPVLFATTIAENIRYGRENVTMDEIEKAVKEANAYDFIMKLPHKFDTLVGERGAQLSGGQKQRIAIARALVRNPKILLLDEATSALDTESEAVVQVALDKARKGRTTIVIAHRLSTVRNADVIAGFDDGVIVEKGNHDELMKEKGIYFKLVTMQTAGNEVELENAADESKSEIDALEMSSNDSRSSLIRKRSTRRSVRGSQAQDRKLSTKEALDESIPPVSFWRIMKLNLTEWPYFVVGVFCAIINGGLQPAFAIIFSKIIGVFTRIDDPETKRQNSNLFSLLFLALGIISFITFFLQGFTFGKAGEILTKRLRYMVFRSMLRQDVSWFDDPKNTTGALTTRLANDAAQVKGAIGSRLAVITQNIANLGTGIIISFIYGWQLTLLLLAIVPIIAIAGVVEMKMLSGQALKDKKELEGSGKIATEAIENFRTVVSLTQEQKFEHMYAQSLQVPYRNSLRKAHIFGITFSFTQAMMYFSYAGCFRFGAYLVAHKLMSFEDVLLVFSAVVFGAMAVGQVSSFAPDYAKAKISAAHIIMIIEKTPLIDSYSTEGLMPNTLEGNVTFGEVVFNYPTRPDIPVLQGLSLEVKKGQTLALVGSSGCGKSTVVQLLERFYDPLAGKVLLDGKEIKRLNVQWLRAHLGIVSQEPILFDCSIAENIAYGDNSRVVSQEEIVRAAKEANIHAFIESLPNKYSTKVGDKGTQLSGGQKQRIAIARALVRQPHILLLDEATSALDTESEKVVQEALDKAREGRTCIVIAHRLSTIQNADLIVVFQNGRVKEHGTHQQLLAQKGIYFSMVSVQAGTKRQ
# EXPERIMENT_NOTES: in vitro
# CONDITION_PARAMETERS: human
READOUT: inhibition at 60 min, 40 µM (%)
One number for each entry, in %.

Task: Enter measured inhibition at 60 min, 40 µM, system P-gp (Homo sapiens, UniProt P08183), for the compound shown: "C[C@H](Nc1ncnc(N)c1C#N)c1cc2ncc(Cl)n2nc1-c1ccccc1"
Result: 58.4

* * *

# EXPERIMENT_NOTES: Metabolic stability in rat liver microsomes
# Type: in vitro ADME
# CONDITION_PARAMETERS: male, rat, microsomes, pH 7.4, Predicted CL int, iv vivo
# Procedure: FMO was deactivated by heating liver microsomes at 45°C for 5 min. […] (1) metabolic clearance is the major mechanism of clearance; (2) liver is the major organ of clearance; and (3) oxidation is the major metabolic pathway. CLint,in vitro=k / Cmicrosomes , Scaled CLint,in vivo=CLint,in vitro×microsomes yield×liver weight, where Cmicrosomes means the experimental protein concentration (0.5 mg/mL) in the incubation system.
READOUT: CLint scaled at 1 µM
Provide a numeric answer, followed by its unit.

Task: Identify measured CLint scaled at 1 µM associated with "C[C@H](Nc1ncnc(N)c1C#N)c1cc2ncc(Cl)n2nc1-c1ccccc1"
Result: 65.9 mL/min/kg

* * *

# EXPERIMENT_NOTES: Single-dose PK in cynomolgus monkeys (IV/PO)
# Assay type: in vivo, cynomolgus monkey
# CONDITION_PARAMETERS: both sexes, cynomolgus monkey, in vivo, po, 5 mg/kg
READOUT: AUC(0-t) (ng·h/mL)
Numbers only, in ng·h/mL.

Task: Return AUC(0-t) (reported value) for this compound: C[C@H](Nc1ncnc(N)c1C#N)c1cc2ncc(Cl)n2nc1-c1ccccc1 [Amdizalisib]
Result: 2330

* * *

# EXPERIMENT_NOTES: Metabolic stability in mouse liver microsomes
# Format: in vitro ADME
# CONDITION_PARAMETERS: female, mouse, microsomes, pH 7.4, in vitro t1/2
READOUT: half-life at 1 µM (h)
Give bare numbers, in h.

Task: Report half-life at 1 µM, nothing else, for this compound: "C[C@H](Nc1ncnc(N)c1C#N)c1cc2ncc(Cl)n2nc1-c1ccccc1"
Result: 1.7

* * *

# EXPERIMENT_NOTES: Single-dose PK and food effect in beagle dogs (IV/PO)
# Parameters: species or system beagle dog
# CONDITION_PARAMETERS: both sexes, beagle, dog, in vivo, iv, 0.5 mg/kg
READOUT: AUC(0-t)
Respond with a number, then the unit of measure.

Task: Dear colleague, please send me the reported AUC(0-t) for C[C@H](Nc1ncnc(N)c1C#N)c1cc2ncc(Cl)n2nc1-c1ccccc1 [Amdizalisib] when you can.
Result: 750 ng·h/mL

* * *

# EXPERIMENT_NOTES: Solubility
# Assay type: physicochemical
# CONDITION_PARAMETERS: water, pH 7.78
READOUT: solubility (µg/mL)
One number for each entry, in µg/mL.

Task: Tell me its solubility given "C[C@H](Nc1ncnc(N)c1C#N)c1cc2ncc(Cl)n2nc1-c1ccccc1" as the entry.
Result: 25

* * *

# EXPERIMENT_NOTES: Caco-2 bidirectional transport permeability
# Format: in vitro ADME, human
# CONDITION_PARAMETERS: human
# Procedure: The passage number of cells used in this study was 39. Non-specific binding to the device surfaces and the aqueous solubility of test compounds were tested before the transport experiment. […] The integrity of the monolayer was estimated by measuring transepithelial electrical resistance (TEER). Only the monolayers with TEER over 150 Ω were used for the studies.
Field: Papp A→B at 60 min, 10 µM. Provide a value for each of the compounds that follow.
Answers are plain numbers, in ×10⁻⁶ cm/s.

{"COMPOUND": "C[C@H](Nc1ncnc(N)c1C#N)c1cc2ncc(Cl)n2nc1-c1ccccc1 [Amdizalisib]", "Papp A→B at 60 min, 10 µM, ×10⁻⁶ cm/s": 39.9}

Task: Report measured Papp A→B at 60 min, 10 µM; entry is COCCc1ccc(OCC(O)CNC(C)C)cc1 (centres unmarked) [Metoprolol, reference compound]
Result: 39.4

* * *

# TESTED_TARGET: P-gp (Homo sapiens, UniProt P08183)
# EXPERIMENT_NOTES: in vitro
# CONDITION_PARAMETERS: human
READOUT: inhibition at 60 min, 0.5 µM (%)
Numbers only, in %.

Task: Give inhibition at 60 min, 0.5 µM for "C[C@H](Nc1ncnc(N)c1C#N)c1cc2ncc(Cl)n2nc1-c1ccccc1"
Result: -3.22

* * *

# EXPERIMENT_NOTES: Tissue distribution in SD rats after oral dose
# Set-up: species or system SD rat
# CONDITION_PARAMETERS: SD, in vivo; male rat, PO 5 mg/kg, liver
READOUT: half-life (h)
One number for each entry, in h.

Task: Let me know recorded half-life for C[C@H](Nc1ncnc(N)c1C#N)c1cc2ncc(Cl)n2nc1-c1ccccc1 [Amdizalisib] , thanks.
Result: 1.76

* * *

# EXPERIMENT_NOTES: Single-dose PK in cynomolgus monkeys (IV/PO)
# Assay type: in vivo, cynomolgus monkey
# CONDITION_PARAMETERS: both sexes, in vivo; Cynomolgus monkey, fasted, IV 1 mg/kg; read-out: t1/2 (converted)
READOUT: half-life (h)
One number for each entry, in h.

Task: Consider the molecule "C[C@H](Nc1ncnc(N)c1C#N)c1cc2ncc(Cl)n2nc1-c1ccccc1" and give its recorded half-life.
Result: 2.82

* * *

# Tested on: CYP3A4/5
# EXPERIMENT_NOTES: Reversible CYP inhibition in HLM, CYP3A4/5 (testosterone, midazolam)
# Format: in vitro ADME, human
# CONDITION_PARAMETERS: human, human liver microsomes, reversible, without pre-incubation
READOUT: IC50

Task: For the molecule C[C@H](Nc1ncnc(N)c1C#N)c1cc2ncc(Cl)n2nc1-c1ccccc1 [Amdizalisib] , give its reported IC50.
Result: > 50 µM

* * *

# TESTED_TARGET: P-gp (Homo sapiens, UniProt P08183)
# EXPERIMENT_NOTES: in vitro
# CONDITION_PARAMETERS: human, Caco-2
READOUT: Papp B→A at 60 min, 5 µM
Provide a numeric answer, followed by its unit.

Task: State its Papp B→A at 60 min, 5 µM: C[C@H]1O[C@@H](O[C@H]2[C@@H](O)C[C@H](O[C@H]3[C@@H](O)C[C@H](O[C@H]4CC[C@@]5(C)[C@H](CC[C@@H]6[C@@H]5C[C@@H](O)[C@]5(C)[C@@H](C7=CC(=O)OC7)CC[C@]65O)C4)O[C@@H]3C)O[C@@H]2C)C[C@H](O)[C@@H]1O [Digoxin, reference compound]
Result: 25 ×10⁻⁶ cm/s

* * *

# EXPERIMENT_NOTES: Single-dose PK in SD rats (IV/PO)
# Parameters: species or system SD rat
# CONDITION_PARAMETERS: both sexes, in vivo; SD rat, fasted, PO 1 mg/kg; read-out: Tmax
READOUT: Tmax (h)
One number for each entry, in h.

Task: Quick one: give measured Tmax for "C[C@H](Nc1ncnc(N)c1C#N)c1cc2ncc(Cl)n2nc1-c1ccccc1"
Result: 2.67

* * *

# EXPERIMENT_NOTES: Caco-2 bidirectional transport permeability
# Type: in vitro ADME, human
# CONDITION_PARAMETERS: human
# Description: The passage number of cells used in this study was 39. Non-specific binding to the device surfaces and the aqueous solubility of test compounds were tested before the transport experiment. […] The integrity of the monolayer was estimated by measuring transepithelial electrical resistance (TEER). Only the monolayers with TEER over 150 Ω were used for the studies.
READOUT: Papp B→A at 60 min, 20 µM (×10⁻⁶ cm/s)
Numbers only, in ×10⁻⁶ cm/s.

Task: Quote Papp B→A at 60 min, 20 µM reported for C[C@H](Nc1ncnc(N)c1C#N)c1cc2ncc(Cl)n2nc1-c1ccccc1 [Amdizalisib] please.
Result: 52.3

* * *

# EXPERIMENT_NOTES: Metabolic stability in monkey liver microsomes
# Type: in vitro ADME
# CONDITION_PARAMETERS: female, monkey, microsomes, pH 7.4, in vitro t1/2
READOUT: half-life at 1 µM (h)
Answers are plain numbers, in h.

Task: Supply recorded half-life at 1 µM for "C[C@H](Nc1ncnc(N)c1C#N)c1cc2ncc(Cl)n2nc1-c1ccccc1" here.
Result: 1.63
